# target under test: Proteasome assembly chaperone 3 (Homo sapiens) (UniProt Q9BT73)
# Sequence (Q9BT73 whole entry, the tested form may be a part): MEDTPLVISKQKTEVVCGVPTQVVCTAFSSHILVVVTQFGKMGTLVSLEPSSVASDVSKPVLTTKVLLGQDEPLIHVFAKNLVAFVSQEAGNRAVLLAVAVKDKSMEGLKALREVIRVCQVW
# test method notes: Inhibition of N-terminal mKG-labeled PAC3/C-terminal mKG-labeled PAC3 homodimer (unknown origin) protein-protein interaction at 10 uM preincubated for 1 hr with protein followed by another protein addition and measured after 17 hrs by fluorescence based protein-fragment complementation assay relative to control
value type: inhibition (%)
Unit % implied. Number only.

q: Recall the recorded inhibition for COCOC(=O)c1c(C)c(C)c(OC(=O)c2c(C)c(C)c(OC(=O)c3c(C)c(C(=O)Oc4c(C)c(C)c(C(=O)Oc5c(C)c(C)c(C(=O)OCOC)c(OC)c5C)c(OC)c4C)c(OC)c(C)c3OC)c(C)c2OC)c(C)c1OC with Proteasome assembly chaperone 3 (Homo sapiens) (UniProt Q9BT73) and state it.
a: 2

q: Entry COc1c(C)c(OC(=O)c2c(C)c(C)c(OC(=O)c3c(C)c(C(=O)Oc4c(C)c(C)c(C(=O)Oc5c(C)c(C)c(C(=O)O)c(OC)c5C)c(OC)c4C)c(O)c(C)c3O)c(C)c2OC)c(C)c(C)c1C(=O)O , system Proteasome assembly chaperone 3 (Homo sapiens) (UniProt Q9BT73): what inhibition was measured?
a: 94

q: Tell me reported inhibition for COc1c(C)c(OC(=O)c2c(C)c(C)c(OCc3cccc(COc4c(C)c(C)c(C(=O)Oc5c(C)c(C)c(C(=O)O)c(OC)c5C)c(OC)c4C)c3Br)c(C)c2OC)c(C)c(C)c1C(=O)O , tested with Proteasome assembly chaperone 3 (Homo sapiens) (UniProt Q9BT73).
a: 86
